# System: RPMI-8226 leukemia
# assay.comment: NCI tumour cell line growth inhibition, 48 h
Kindly state TGI for each of the entries shown.
# unit: µM | format: bare number

-- ask Any idea what its TGI is? The compound is CC(=O)OCC1OC(N2C(=O)/C(=C\c3ccc(Cl)cc3)C(N)=Nc3ccccc32)C(OC(C)=O)C(OC(C)=O)C1OC(C)=O (stereo not given)
-- reply 13.8

-- ask Any idea what its TGI is? The compound is `NC(N)=N/N=C(/c1ccccc1)c1ccc(F)cc1`
-- reply 21.6

-- ask Any idea what its TGI is? The compound is `CC(C)(C)OC(=O)n1cc(CNC(=S)Nc2ccccc2)c2ccccc21`
-- reply 16.4

-- ask Any idea what its TGI is? The compound is `Cc1cc(=O)cc2sc3c(C)cccc3nc1-2`
-- reply 97

Source listed as PubChem BioAssay (NCI).
